tested on: Enterococcus faecalis; experiment: Antibacterial activity against Enterococcus faecalis ATCC 29212 by broth microdilution method; type: functional
REPORTED ENDPOINT: MIC (µM)

Below, each entry is followed by its recorded MIC result.
CN1C(=O)[C@@H]2[C@@H](ON(C)[C@H]2c2ccc(Cl)cc2)C1=O	1430
CC1(C)S[C@@H]2[C@H](NC(=O)[C@H](N)c3ccccc3)C(=O)N2[C@H]1C(=O)O	2

1. CN1C(=O)[C@H]2[C@@H](c3ccc([N+](=O)[O-])cc3)N(C)O[C@H]2C1=O
2. CN1O[C@H]2C(=O)N(c3ccccc3)C(=O)[C@H]2[C@H]1c1ccccc1 (relative stereo)
## Task Kindly compare 1 with 2 and tell me which has the lower MIC figure. Record your answer as the label of the chosen record.
## Result 1

====

system: Enterococcus faecalis; test: Antibacterial activity against Enterococcus faecalis ATCC 29212 by broth microdilution method; assay type: functional
REPORTED ENDPOINT: MIC (µM)

a. CN1O[C@H]2C(=O)N(c3ccccc3)C(=O)[C@H]2[C@H]1c1ccc(Cl)cc1
b. CN1C(=O)[C@@H]2[C@@H](ON(C)[C@H]2c2ccc([N+](=O)[O-])cc2)C1=O
## Task Of a and b , which carries the smaller reported MIC figure? Your choice should be expressed through its label.
## Result a
(a: 730 µM, b: 5490 µM)

P. CN1O[C@H]2C(=O)N(c3ccccc3)C(=O)[C@H]2[C@H]1c1cccc(Br)c1 (relative stereo)
Q. CN1O[C@H]2C(=O)N(c3ccccc3)C(=O)[C@H]2[C@@H]1c1ccc([N+](=O)[O-])cc1
R. CN1C(=O)[C@@H]2[C@@H](ON(c3ccccc3)[C@H]2c2ccc(N(C)C)cc2)C1=O (relative stereo)
## Task Form: Sort by [MIC] Order [ ascending ] Please express your ranking as an ordered list of the labels.
## Result Q, P, R

A. CN1C(=O)[C@H]2[C@@H](c3ccc(Cl)cc3)N(C)O[C@H]2C1=O
B. CN1C(=O)[C@H]2[C@@H](c3cccc(Br)c3)N(C)O[C@H]2C1=O (relative stereo)
## Task # return whichever of A and B has the smaller MIC # respond with the chosen item's label
## Result B
(B: 620 µM, A: 1430 µM)

1. COc1ccc([C@@H]2[C@@H]3C(=O)N(c4ccccc4)C(=O)[C@@H]3ON2C)cc1 (relative stereo)
2. CN1O[C@H]2C(=O)N(c3ccccc3)C(=O)[C@H]2[C@@H]1c1cccc(Br)c1 (relative stereo)
3. CN1C(=O)[C@@H]2[C@@H](ON(C)[C@H]2c2ccc(N(C)C)cc2)C1=O (relative stereo)
4. CN1C(=O)[C@H]2[C@@H](c3ccc(N(C)C)cc3)N(c3ccccc3)O[C@H]2C1=O (relative stereo)
## Task # rank_down: sort by MIC, max first Give the labels in the order specified.
## Result 3, 1, 2, 4
(3: 5530 µM, 1: 1180 µM, 2: 520 µM, 4: 280 µM)

====

tested on: Enterococcus faecalis; assay: Antibacterial activity against Enterococcus faecalis ATCC 29212 by broth microdilution method; format: functional
REPORTED ENDPOINT: MIC (µM)

CN1C(=O)[C@@H]2[C@@H](ON(C)[C@H]2c2cccc(Br)c2)C1=O (relative stereo)	1230

A. CN1C(=O)[C@@H]2[C@@H](ON(C)[C@H]2c2cccc(Cl)c2)C1=O (relative stereo)
B. COc1cc([C@@H]2[C@@H]3C(=O)N(C)C(=O)[C@@H]3ON2C)ccc1OCc1ccccc1 (relative stereo)
## Task When the recorded MIC values are compared, which is smaller: that of A or that of B ? Please respond with the label that marks your chosen entry.
## Result B

A. CN1O[C@H]2C(=O)N(c3ccccc3)C(=O)[C@H]2[C@H]1c1ccc([N+](=O)[O-])cc1
B. CN1C(=O)[C@H]2[C@@H](c3cccc(Cl)c3)N(C)O[C@H]2C1=O (relative stereo)
## Task Hi, I'm comparing two records. Which one has the lower MIC, A or B ? Provide the label of your selected option as the answer.
## Result A

====

test system: Enterococcus faecalis; assay: Antibacterial activity against Enterococcus faecalis ATCC 29212 by broth microdilution method; assay type: functional
REPORTED ENDPOINT: MIC (µM)

See these solved cases before continuing.
CCN(CC)c1ccc([C@@H]2[C@@H]3C(=O)N(c4ccccc4)C(=O)[C@@H]3ON2C)cc1 (relative stereo)	660
COc1cc([C@H]2[C@@H]3C(=O)N(c4ccccc4)C(=O)[C@@H]3ON2C)ccc1OCc1ccccc1	1130
CN1C(=O)[C@@H]2[C@@H](ON(C)[C@H]2c2ccccc2)C1=O (relative stereo)	1020

I. CN1O[C@H]2C(=O)N(c3ccccc3)C(=O)[C@H]2[C@@H]1c1ccccc1 (relative stereo)
II. CCN(CC)c1ccc([C@H]2[C@@H]3C(=O)N(c4ccccc4)C(=O)[C@@H]3ON2C)cc1
## Task Which has the higher MIC, I or II ? State the label of the item chosen.
## Result II
(II: 4220 µM, I: 1620 µM)

1. COc1cc([C@H]2[C@@H]3C(=O)N(C)C(=O)[C@@H]3ON2C)ccc1OCc1ccccc1 (relative stereo)
2. Cc1ccc([C@H]2[C@@H]3C(=O)N(C)C(=O)[C@@H]3ON2C)cc1 (relative stereo)
3. CN1O[C@H]2C(=O)N(c3ccccc3)C(=O)[C@H]2[C@@H]1c1ccc(Cl)cc1
## Task Could you please sort these 3 entries by MIC from high to low? Form entry: labels listed in requested order.
## Result 2, 3, 1

====

tested on: Enterococcus faecalis; experiment: Antibacterial activity against Enterococcus faecalis ATCC 29212 by broth microdilution method; assay type: functional
REPORTED ENDPOINT: MIC (µM)

I. CN1C(=O)[C@@H]2[C@@H](ON(C)[C@H]2c2ccc(Br)cc2)C1=O (relative stereo)
II. CCN(CC)c1ccc([C@@H]2[C@@H]3C(=O)N(C)C(=O)[C@@H]3ON2C)cc1 (relative stereo)
## Task So which one has the bigger MIC here, I or II ? Your choice should be expressed through its label.
## Result I

====

system: Enterococcus faecalis; experiment: Antibacterial activity against Enterococcus faecalis ATCC 29212 by broth microdilution method; type: functional
REPORTED ENDPOINT: MIC (µM)

CN1C(=O)[C@H]2[C@@H](c3ccccc3)N(C)O[C@H]2C1=O (relative stereo)	1620
COc1ccc([C@H]2[C@@H]3C(=O)N(c4ccccc4)C(=O)[C@@H]3ON2C)cc1 (relative stereo)	1180
CCN(CC)c1ccc([C@H]2[C@@H]3C(=O)N(C)C(=O)[C@@H]3ON2C)cc1 (relative stereo)	630
CN1C(=O)[C@H]2[C@@H](c3ccc(N(C)C)cc3)N(C)O[C@H]2C1=O (relative stereo)	1380
CN1O[C@H]2C(=O)N(c3ccccc3)C(=O)[C@H]2[C@H]1c1ccc(Br)cc1 (relative stereo)	520

1. Cc1ccc([C@H]2[C@@H]3C(=O)N(c4ccccc4)C(=O)[C@@H]3ON2C)cc1 (relative stereo)
2. CN1O[C@H]2C(=O)N(c3ccccc3)C(=O)[C@H]2[C@@H]1c1ccc(Br)cc1 (relative stereo)
## Task So which one has the bigger MIC here, 1 or 2 ? // output: label of the selected item
## Result 1
(1: 1240 µM, 2: 520 µM)

====

test system: Enterococcus faecalis; test: Antibacterial activity against Enterococcus faecalis ATCC 29212 by broth microdilution method; type: functional
REPORTED ENDPOINT: MIC (µM)

Cc1ccc([C@@H]2[C@@H]3C(=O)N(c4ccccc4)C(=O)[C@@H]3ON2C)cc1 (relative stereo)	3100

P. CN1C(=O)[C@H]2[C@@H](c3ccc(Br)cc3)N(C)O[C@H]2C1=O (relative stereo)
Q. CN(C)c1ccc([C@H]2[C@@H]3C(=O)N(c4ccccc4)C(=O)[C@@H]3ON2C)cc1
## Task Given P and given Q , which shows the smaller recorded MIC? Bench note: the answer is the label of the chosen record.
## Result Q

====

test system: Enterococcus faecalis; assay: Antibacterial activity against Enterococcus faecalis ATCC 29212 by broth microdilution method; type: functional
Reported MIC values for a set of compounds

Solved entries:
CN(C)c1ccc([C@@H]2[C@@H]3C(=O)N(c4ccccc4)C(=O)[C@@H]3ON2C)cc1	> 4.55 mM
COc1ccc([C@@H]2[C@@H]3C(=O)N(C)C(=O)[C@@H]3ON2C)cc1 (relative stereo)	> 5.79 mM

Query compound follows.
The value of MIC measured for the compound COc1ccc([C@H]2[C@@H]3C(=O)N(C)C(=O)[C@@H]3ON2C)cc1 (relative stereo) turned out to be > 5.79 mM
